assay: Selectivity index, ratio of CC50 for human A549 cells to MIC for fluconazole/ITC-resistant Candida albicans ATCC 90819; format: toxicity; conditions: read-out: Selectivity Index
quantity_name: selectivity ratio

Below: 2 molecules and their reported selectivity ratio.
1) Fc1ccc(N/N=C/c2ccc(-c3cccc(/C=N/Nc4ccc(F)cc4)c3)cc2)cc1 = 1
2) C(=N\Nc1ccccc1)/c1ccc(-c2cccc(/C=N/Nc3ccccc3)c2)cc1 = 1

# ---- query molecule ----
Field selectivity ratio (entry Fc1cccc(N/N=C/c2ccc(-c3ccc(/C=N/Nc4cccc(F)c4)cc3)cc2)c1 ) reads 1
